All figures here come from patent US20250277057A1.

Bmax reference
Target: T1, human activated protein C (human, UniProt P04070 43-197; P04070 212-461)
T1 construct: In the plasma assays aPC is generated in human plasma with Protac; also called aPC; haPC
Assay: direct antigen coating ELISA (KD ELISA) of Fab periplasmic extract, anti-c-myc HRP
Returns: the value as a bare number; no unit string appended.

binder	Bmax
HAPC-14-R1-2L4-D4 (Fab, V domains shown, Single-site mutant Fab of HAPC-14) VH: EVQLVESGGGLVQPGGSLRLSCAASGFTFSNYYLNWVRQAPGKGLEWVGDIRLKSNNYEKHYAESVKGRFTISRDDSKSITYLQMNSLRAEDTAVYYCAREGDYFDYWGQGTTVTVSS VL: DIQLTQSPSSLSASVGDRVTITCRASESVDSFGATFMHWYQQKPGKAPKLLIYLASRLESGVPSRFSGSGSGTDFTLTISSLQPEDFATYYCQQNNEDPYTFGQGTKLEIK	0.567
HAPC-14-R1-2L6-F2 (Fab, V domains shown, Single-site mutant Fab of HAPC-14; inferred from the clone name (2L6, same site as E59G/P)) VH: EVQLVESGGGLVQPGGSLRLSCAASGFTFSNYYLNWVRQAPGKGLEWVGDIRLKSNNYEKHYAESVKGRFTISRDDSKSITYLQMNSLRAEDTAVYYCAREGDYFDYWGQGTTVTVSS VL: DIQLTQSPSSLSASVGDRVTITCRASESVDSFGATFMHWYQQKPGKAPKLLIYLASNLKSGVPSRFSGSGSGTDFTLTISSLQPEDFATYYCQQNNEDPYTFGQGTKLEIK	0.299

The reported Bmax of the binder HAPC-14-R1-2L4-G9 (Fab, V domains shown, Single-site mutant Fab of HAPC-14; inferred from the clone name (2L4, same site as N57R/W)) VH: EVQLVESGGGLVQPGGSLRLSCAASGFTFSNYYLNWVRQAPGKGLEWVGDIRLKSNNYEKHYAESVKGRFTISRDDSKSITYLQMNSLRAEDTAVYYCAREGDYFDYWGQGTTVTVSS VL: DIQLTQSPSSLSASVGDRVTITCRASESVDSFGATFMHWYQQKPGKAPKLLIYLASKLESGVPSRFSGSGSGTDFTLTISSLQPEDFATYYCQQNNEDPYTFGQGTKLEIK was 0.287
